Readings of pIC50 for the listed compounds
Target: HSD17B13 enzyme (Homo sapiens)
Construct: His; made in house; host or cells: E. coli
Assay: NADH detection assay (fluorescence based LTB3 assay) for HSD17B13 activity
Assay type: biochemical
Conditions: substrate 25 μM LTB3, 3 mM NAD+, 125 nM HSD17B13 enzyme, 1 hour at 26.5° C.
Protocol: Example A: NADH Detection Assay for Evaluation of HSD17ß13 Activity and Identification of Inhibitors The fluorescence based Leukotriene B3 (LTB3) assay monitors the fluorescence of NADH, which is generated from NAD+ during the dehydrogenation of the substrate LTB3. […] Reactions were initiated by co-addition of NAD+ and enzyme, and monitored for 1 hour at 26.5° C. […] NADH standards were included to allow the conversion of relative fluorescence units into rates of enzyme activity. […]
pIC50: −log10 of the molar value.

>  <input.smiles>
COc1cc(Oc2nccc(-c3cccc(O)c3F)n2)ccc1F

>  <pIC50>
< 4.52

$$$$
>  <input.smiles>
CNc1nc2cc(-c3cccc(Oc4ccc(F)c(O)c4)n3)ccc2s1

>  <pIC50>
5.00 to 5.30

$$$$
>  <input.smiles>
N#Cc1cccc(-c2cccc(Oc3ccc(F)c(O)c3)n2)c1

>  <pIC50>
4.52 to 5.00

$$$$

[ask] Name the reported pIC50 value associated with the compound Oc1cc(Oc2cccc(-c3ccc4c(c3)NCCO4)n2)ccc1F
[reply] ≥ 5.30

[ask] What do we get for COc1cccc(-c2cccc(Oc3ccc4cn[nH]c4c3)n2)c1F ?
[reply] < 4.52

[ask] What do we get for COc1cccc(-c2cccc(Oc3ccc(F)c(NS(C)(=O)=O)c3)n2)c1F ?
[reply] < 4.52

[ask] What do we get for Oc1cc(Oc2cccc(N3CCOCC3)n2)ccc1F ?
[reply] < 4.52

[ask] What do we get for CN(C)S(=O)(=O)c1cccc(-c2cccc(Oc3ccc(F)c(O)c3)n2)c1 ?
[reply] 5.00 to 5.30

[ask] What do we get for CS(=O)(=O)NCc1cccc(Oc2cccc(-c3cccc(O)c3F)n2)c1 ?
[reply] < 4.52

---

Molecular target: HSD17B13 enzyme (Homo sapiens, UniProt Q7Z5P4)
Construct: His; made in house; host or cells: E. coli
Sequence (Q7Z5P4 20-300): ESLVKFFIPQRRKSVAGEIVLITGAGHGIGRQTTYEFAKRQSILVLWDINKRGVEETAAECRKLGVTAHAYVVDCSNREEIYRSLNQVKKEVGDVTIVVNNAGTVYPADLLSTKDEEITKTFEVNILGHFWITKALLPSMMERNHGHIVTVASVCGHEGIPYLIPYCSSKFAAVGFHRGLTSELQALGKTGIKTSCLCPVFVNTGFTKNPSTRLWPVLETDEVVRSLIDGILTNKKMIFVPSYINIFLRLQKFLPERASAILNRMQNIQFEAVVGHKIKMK
Experiment: Estrone detection assay (LC/MS, estradiol to estrone conversion) for HSD17B13 activity
Type: biochemical
Settings: substrate 4 μM Estradiol, 6 mM NAD+, 30 nM HSD17B13 enzyme, 2 hours at 26.5° C.
pIC50: −log10 of the molar value.
measured.metric: pIC50

Answered examples (3):
>  <input.smiles>
Oc1c(Cl)ccc(Oc2ccnc(-c3ccc(N4CCOCC4)cc3)n2)c1Cl

>  <pIC50>
6.00 to 6.30

$$$$
>  <input.smiles>
Oc1c(F)ccc(Oc2ccnc(-c3ccc(N4CCOCC4)cc3)n2)c1F

>  <pIC50>
≥ 7.00

$$$$
>  <input.smiles>
Oc1c(Cl)ccc(Oc2ccnc(-c3ccc(N4CCOCC4)cc3)n2)c1F

>  <pIC50>
6.30 to 7.00

$$$$

Next compound, please.
[ask] Name the reported pIC50 value associated with the compound O=S1(=O)CCN(c2ccc(-c3nccc(Oc4ccc(F)c(O)c4F)n3)cc2)CC1
[reply] ≥ 7.00
